# TARGET_OR_TEST_SYSTEM: rat sodium-dependent nucleobase transporter 1 (rSNBT1) (Rattus norvegicus)
# Construct: gene Slc23a4
# PROTOCOL: inhibition of rSNBT1-specific […]urate uptake in stably transfected MDCKII cells
# Assay type: cell-based
READOUT_KIND: pIC50
Give bare numbers, as −log10 of the molar value.

Prompt line: Bench note: what pIC50 did Nc1nc2nc[nH]c2c(=O)[nH]1 show?
Response line: 5.57

---

# TARGET_OR_TEST_SYSTEM: rat sodium-dependent nucleobase transporter 1 (rSNBT1) (Rattus norvegicus, UniProt D2KX48)
# Construct: gene Slc23a4
# Sequence (D2KX48 1-614): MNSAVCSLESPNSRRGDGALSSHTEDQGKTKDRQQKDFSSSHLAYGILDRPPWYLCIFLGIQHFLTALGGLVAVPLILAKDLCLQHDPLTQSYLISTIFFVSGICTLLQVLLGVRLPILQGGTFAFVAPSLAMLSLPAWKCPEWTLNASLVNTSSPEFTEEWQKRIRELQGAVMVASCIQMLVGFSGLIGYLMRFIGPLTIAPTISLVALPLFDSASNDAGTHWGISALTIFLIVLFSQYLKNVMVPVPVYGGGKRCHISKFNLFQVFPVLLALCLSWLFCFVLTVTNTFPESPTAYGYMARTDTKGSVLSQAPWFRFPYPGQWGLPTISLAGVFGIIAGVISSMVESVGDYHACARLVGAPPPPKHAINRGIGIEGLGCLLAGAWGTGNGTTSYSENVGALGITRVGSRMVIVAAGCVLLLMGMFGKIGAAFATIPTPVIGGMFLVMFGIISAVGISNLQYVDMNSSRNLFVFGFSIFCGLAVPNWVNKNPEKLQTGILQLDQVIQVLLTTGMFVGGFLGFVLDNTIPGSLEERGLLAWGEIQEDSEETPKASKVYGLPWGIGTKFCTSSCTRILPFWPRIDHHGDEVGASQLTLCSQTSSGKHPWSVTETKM
# PROTOCOL: inhibition of rSNBT1-specific […]urate uptake in stably transfected MDCKII cells; [3H]uracil uptake in transfected HEK293 cells
# Type: cell-based
READOUT_KIND: pIC50
One number for each entry, as −log10 of the molar value.

Prompt line: Bench note: what pIC50 did O=c1cc[nH]c(=O)[nH]1 show?
Response line: 4.55
